System: cell lines derived from cancers (ATCC and JCRB)
assaySummary: Reactivity of antibodies to cancer-derived cell lines by FACS (Table 23)
Type: binding
assaySetup: Cancer Type: Pancreas

# molecule, Detection Sensitivity of Cancers, P/N
data = [
    ("clone 1361: rat IgG anti-TMEM-180 monoclonal antibody; variable regions SEQ ID NOs: 70 and 71 (antibody, V domains shown) VH: MDIRLSLVFLVLFIKGVQCEVQLVESGGGLVQPGRSLKLSCVASGFTFNNYWMTWIRQAPGKGLEWVASITNTGGSTYYPDSVKGRFTISRDYAKSTLYLQMNSLRSEDTATYYCTRAGYSSYPDYFDYWGQGVMLTVSS VL: MMAPVQLLGLLLLWLPAMRCNIQMTQSPSLLSASVGDRVTLSCKAGQNIYNYLAWYQQKLGEAPKLLIYNANSLQTGIPSRFSGSGSGTDFTLTISSLQPEDVATYFCQQYSSGWTFGGGTKLELK", "(9/9)"),
    ("clone 669: rat IgM anti-TMEM-180 monoclonal antibody; variable regions SEQ ID NOs: 78 and 79 (antibody, V domains shown) VH: MGWICIIFLVATATGVHSQVKLLQSGAALVKPGASVKMSCKASGYTFTDYWVSWVKQSHGKSLEWIGEIYPNSGATNFNENFKGKATLTVDKSTSTAYMELSRLTSEDSAIYYCTRDGTMGIAYYFDYWGQGVMVTVSS VL: MMAAVQLLGLLLLWVPAMRCDIQMTQSPSFLSASVGDRVTINCKASQNINRYLNWYQQKLGEAPKLLIYNANSLQTGIPSRFSGSGSGTDFTLTISSLQPEDVATYFCLQHNSWPYTFGAGTKLELK", "(3/9)"),
    ("clone 1105: rat IgM anti-TMEM-180 monoclonal antibody; variable regions SEQ ID NOs: 102 and 103 (antibody, V domains shown) VH: MAVLVLLLCLVTFPSCVLSQVQLKESGPGLMQPSETLSLTCTVSGFSLTSNGVGWVRQPLGKGLVWMGTIWSGGGTNYNSAVQSRLSITRDTSKSQVFLKMNSLQPEDTGTYYCAREEKGFAYWGQGTLVTVSS VL: MELISQVFVFLLLWLSGVYGNIVMTQSPTSMSTSVGDRVTMSCKASQNVGINVGWYQQKTGQSPKRLIYWASNRDTGVPDRFTGSGSGTDFTLTISNMQAEDPAIYYCLQHNSYPRAFGGGTKLELR", "(4/9)"),
    ("clone 1052: rat IgM anti-TMEM-180 monoclonal antibody; variable regions SEQ ID NOs: 94 and 95 (antibody, V domains shown) VH: MAVLVLLLCLVTFPSCVLSQVQLKESGPGLMQPSETLSLTCTVSGFSLTSNGVGWVRQPLGKGLVWMGTIWTGGGTNYNSGVQSRLSISRDTSKSQVFLKMNSLQPEDTGTYYCAREYMGFDYWGQGVMVTVSS VL: MELISQVFVFLLLWLSGVYGNTVMTQSPTSMFTSVGDRVTMSCKASQNVGINVGWYQQKTGQSPKRLIYWASNRDTGVPDRFTGSGSGTDFTLTISNMQAEDPAIYYCLQHNSYPRTFGGGTKLELK", "(4/9)"),
]
